Biological target: Rac GTPase-activating protein 1 (Homo sapiens)
Experiment: blockers of MgcRacGAP-driven Rac1 GTP hydrolysis – biochemical, ADP Hunter fluorescence, primary and confirmatory, confirmation (AID 624330);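 also: fluorescence reports GDP produced by GAP-driven GTP hydrolysis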
Details: MgcRacGAP-stimulated Rac1 GTP hydrolysis, at 30 µM, stronger effect = higher value, GST-tagged Rac1 F28L mutant substrate
The whole screen tested about 340,000 compounds, of which about 2,100 (0.62%) were called active. Not all results are given here. Results with a measured potency or affinity are listed apart.
Listed here are compounds together with their documented inhibition.
Lab book: enter the figure in %, no units written.

compound=COc1ccc(C(=O)O)cc1NC(=S)NC(=O)/C=C/c1ccc(C(C)C)cc1 target_system="Rac GTPase-activating protein 1 (Homo sapiens)" measured_value=14.7
compound=NC(=O)c1cc2ccncc2c2ccccc12 target_system="Rac GTPase-activating protein 1 (Homo sapiens)" measured_value=8.91
compound=COc1ccc(CC(=O)OCC(=O)NCc2ccc(Cl)cc2)cc1 target_system="Rac GTPase-activating protein 1 (Homo sapiens)" measured_value=-11.6
compound=COc1cccc(-c2cc(C(F)(F)F)n3nc(C(=O)Nc4c(C)n(C)n(-c5ccccc5)c4=O)cc3n2)c1 target_system="Rac GTPase-activating protein 1 (Homo sapiens)" measured_value=7.24
compound="CC(Sc1nnc(-c2ccncc2)n1C)C(=O)NCC1CCCO1 (stereo not drawn)" target_system="Rac GTPase-activating protein 1 (Homo sapiens)" measured_value=1.73
compound=COc1cc(OC)cc(-c2ncc3ccccn23)c1 target_system="Rac GTPase-activating protein 1 (Homo sapiens)" measured_value=29.5
compound=CCCCN(C(=O)c1ccc2c(c1)S(=O)(=O)N=C1CCCCCN12)c1c(N)n(CCCC)c(=O)[nH]c1=O target_system="Rac GTPase-activating protein 1 (Homo sapiens)" measured_value=-0.05

Challenge: Item `Cc1c2ccccc2c(C)c2c1ccc1ccccc12` has what recorded inhibition?
Response given: 0.81

---

Target: Rac GTPase-activating protein 1 (Homo sapiens)
Assay: blockers of MgcRacGAP-driven Rac1 GTP hydrolysis – biochemical, ADP Hunter fluorescence, primary and confirmatory, confirmation (AID 624330);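 also: fluorescence reports GDP produced by GAP-driven GTP hydrolysis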
Settings: MgcRacGAP-stimulated Rac1 GTP hydrolysis, at 30 µM, stronger effect = higher value, GST-tagged Rac1 F28L mutant substrate
In all, about 340,000 compounds went through this assay and about 2,100 (0.62%) were called active. Only a sample is shown. Measured potencies and affinities stand elsewhere.
inhibition by entry:
Write the number in % without appending the unit.

molecule=O=C(CN1CCCCCC1)NC(c1ccccc1)c1ccccc1 quantity_name=inhibition measured_value=25.4
molecule="CC1Cc2ccccc2N1CC(=O)NC(c1ccccc1)c1ccccc1 (stereo not given)" quantity_name=inhibition measured_value=-0.83
molecule=COc1ccccc1C(=O)N1CCN=C1SCc1cccnc1 quantity_name=inhibition measured_value=9.35

Now take the following molecule into account.
Challenge: // lookup inhibition for C#CCOCCOCCOCCNc1nc(N2CCN(C(=O)[C@H]([C@@H](C)CC)n3cc([C@@H](N)CC(C)C)nn3)CC2)nc(N2CCN(C(=O)[C@H](CCCCN)n3cc([C@@H](N)C(C)CC)nn3)CC2)n1 (stereo not given in full)
Response given: 19.8

---

Measured inhibition, listed per entry.
Target: Rac GTPase-activating protein 1 (Homo sapiens) (UniProt Q9H0H5)
Sequence (Q9H0H5 whole entry, looked up): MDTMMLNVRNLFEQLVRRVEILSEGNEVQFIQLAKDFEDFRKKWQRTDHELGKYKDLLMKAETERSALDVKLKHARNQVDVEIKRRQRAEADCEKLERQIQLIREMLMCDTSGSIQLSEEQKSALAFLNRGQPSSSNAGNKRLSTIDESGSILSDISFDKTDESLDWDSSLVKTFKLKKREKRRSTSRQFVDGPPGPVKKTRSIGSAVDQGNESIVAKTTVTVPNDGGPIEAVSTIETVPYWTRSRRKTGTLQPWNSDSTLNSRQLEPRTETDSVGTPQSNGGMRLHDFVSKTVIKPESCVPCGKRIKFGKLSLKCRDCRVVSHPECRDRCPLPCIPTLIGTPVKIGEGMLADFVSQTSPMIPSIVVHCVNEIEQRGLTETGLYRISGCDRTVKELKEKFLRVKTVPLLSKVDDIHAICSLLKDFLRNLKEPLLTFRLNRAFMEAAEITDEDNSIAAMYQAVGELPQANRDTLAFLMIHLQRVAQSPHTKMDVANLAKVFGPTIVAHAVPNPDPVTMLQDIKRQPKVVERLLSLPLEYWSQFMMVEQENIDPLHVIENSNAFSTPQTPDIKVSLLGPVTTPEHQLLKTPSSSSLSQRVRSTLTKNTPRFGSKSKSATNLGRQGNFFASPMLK
Experiment: blockers of MgcRacGAP-driven Rac1 GTP hydrolysis – biochemical, ADP Hunter fluorescence, primary and confirmatory, confirmation (AID 624330);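 also: fluorescence reports GDP produced by GAP-driven GTP hydrolysis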
Details: MgcRacGAP-stimulated Rac1 GTP hydrolysis, at 30 µM, stronger effect = higher value, GST-tagged Rac1 F28L mutant substrate
About 2,100 (0.62%) of roughly 340,000 compounds were called active. A selection follows. Measured potencies and affinities stand elsewhere.
Unit % implied. Number only.

Observe how each entry below is paired with its result.
compound=COC(=O)c1cc(-c2ccc(Cl)cc2)n(-c2ccc(S(N)(=O)=O)cc2)n1 quantity_name=inhibition measured_value=5.18
compound=C/C=C(\C)C(=O)NCCN1C2=NC[C@@H](Cc3ccccc3)N2C[C@@H]1Cc1ccc(OC)cc1 quantity_name=inhibition measured_value=5.16
compound=CC(=O)c1ccc(NC(=O)CSc2nc(Nc3ccccc3)nc(N3CCOCC3)n2)cc1 quantity_name=inhibition measured_value=8.08
compound=CSc1sc(-c2ccnc(SCC(=O)C(C)(C)C)n2)c2c1C(=O)CC(C)(C)C2 quantity_name=inhibition measured_value=13.4

Now look at this one.
Challenge: Looking for the measured inhibition of `Cc1nn(C)cc1CNC(=O)/C=C/c1cnn(C)c1` , can you help?
Response given: -2.3
